A collection of sequences and their measured furin cleavage Z-score
Biological target: furin, P09958;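 further: purified furin at 1:10 enzyme:substrate in 50 mM HEPES pH 7.5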
Sequence (P09958 whole entry): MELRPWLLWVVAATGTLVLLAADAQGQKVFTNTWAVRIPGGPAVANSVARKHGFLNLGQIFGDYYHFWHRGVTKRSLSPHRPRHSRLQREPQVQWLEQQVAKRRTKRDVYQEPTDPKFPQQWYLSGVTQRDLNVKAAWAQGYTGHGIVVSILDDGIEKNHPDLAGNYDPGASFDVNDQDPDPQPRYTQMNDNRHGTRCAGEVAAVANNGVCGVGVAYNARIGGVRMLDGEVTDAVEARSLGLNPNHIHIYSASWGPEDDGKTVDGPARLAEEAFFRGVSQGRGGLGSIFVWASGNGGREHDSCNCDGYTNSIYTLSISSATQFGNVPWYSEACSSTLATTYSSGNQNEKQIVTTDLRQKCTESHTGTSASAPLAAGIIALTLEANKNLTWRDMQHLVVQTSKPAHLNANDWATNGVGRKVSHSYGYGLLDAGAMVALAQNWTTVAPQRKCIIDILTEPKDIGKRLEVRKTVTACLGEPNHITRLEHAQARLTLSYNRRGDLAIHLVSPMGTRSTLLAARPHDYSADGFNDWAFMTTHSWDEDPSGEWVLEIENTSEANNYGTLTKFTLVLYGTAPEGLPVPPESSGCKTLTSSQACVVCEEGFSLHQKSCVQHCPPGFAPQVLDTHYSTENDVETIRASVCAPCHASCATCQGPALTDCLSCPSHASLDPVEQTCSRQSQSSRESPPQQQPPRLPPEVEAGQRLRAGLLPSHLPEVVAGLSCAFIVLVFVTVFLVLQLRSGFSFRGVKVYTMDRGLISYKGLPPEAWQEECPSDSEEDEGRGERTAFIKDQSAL
Assay: furin cleavage Z-score vs untreated control; higher = more cleavage, active = 3.5 or more, inactive = 1 or less, 8 variable residues between constant flanks
Conditions: 30 min
Some of the results follow. The hit rate among all sequences tested is not known here.
// keep it numeric: no unit symbol after the value

Use the examples below as a reference point.
CAEFEVPCHRAGNASASA [HC2447] = 0.814
CAAELATRSFAGNASASA [HC1333] = 1.22
CARQKRSVSIAGNASASA [FS-2170] = 6.27

Lab note: next sequence to report on.
Kindly indicate its recorded furin cleavage Z-score. Item: CARQKRIHSAAGNASASA [FS-2361] -0.712
